# Assay explanation: Fluorescence properties measured at pH about 10 in AttoPhos buffer
# Assay type: physicochemical
# Conditions: Table 2
# Method: * The fluorescence is measured at pH about 10 in AttoPhos buffer (JBL Scientific, San Luis Obispo, CA). In the following examples, NMR data were measured by a Bruker AC-300 300 MHz instrument; mass spectra were obtained on a VG Platform, Fisons Instruments; fluorescence data were obtained from a Perkin Elmer Luminescence Spectrometer, Model LS50B.

- Input smiles: "Oc1ccc2nc(/C=C/c3nc4c(ccc5ccccc54)o3)sc2c1"
  Stokes Shift: "153 nm"
- Input smiles: "Oc1ccc2nc(/C=C/c3nc4ccccc4s3)sc2c1"
  Stokes Shift: "180 nm"
- Input smiles: "Oc1ccc2nc(/C=C/c3nc4ccc5ccccc5c4o3)sc2c1"
  Stokes Shift: "159 nm"
- Input smiles: "Oc1ccc2nc(/C=C/c3nc4c(ccc5ccccc54)s3)sc2c1"
  Stokes Shift: "181 nm"
- Input smiles: "Oc1ccc2nc(/C=C/c3nc4ccccc4o3)sc2c1"
  Stokes Shift: "166 nm"

---

# Assay explanation: Fluorescence properties measured at pH about 10 in AttoPhos buffer
# Assay type: physicochemical
# Conditions: Table 2
Each entry below carries its reported EX.

- Molecule: "Oc1ccc2nc(/C=C/c3nc4c(ccc5ccccc54)s3)sc2c1 [α-BENT]"
  EX, nm: 443
- Molecule: "Oc1ccc2nc(/C=C/c3nc4ccccc4o3)sc2c1 [BEBO]"
  EX, nm: 438
- Molecule: "Oc1ccc2nc(/C=C/c3nc4ccc5ccccc5c4o3)sc2c1 [β-BENO]"
  EX, nm: 443
- Molecule: "Oc1ccc2nc(/C=C/c3nc4ccccc4s3)sc2c1 [BEBT]"
  EX, nm: 440
- Molecule: "Oc1ccc2nc(/C=C/c3nc4c(ccc5ccccc54)o3)sc2c1 [α-BENO]"
  EX, nm: 432

---

# Assay explanation: Fluorescence properties measured at pH about 10 in AttoPhos buffer
# Format: physicochemical
# Conditions: Table 1

- Input smiles: "Oc1ccc2nc(-c3nc4ccccc4s3)sc2c1F"
  EM [nm]: 552
- Input smiles: "O=S(=O)(O)c1c(O)ccc2nc(-c3nc4ccccc4s3)sc12"
  EM [nm]: 538
- Input smiles: "OCCc1ccc2nc(-c3nc4ccc(O)cc4s3)sc2c1"
  EM [nm]: 550
- Input smiles: "Oc1ccc2nc(-c3nc4ccccc4s3)sc2c1Cl"
  EM [nm]: 550
- Input smiles: "O=C(O)Cc1ccc2nc(-c3nc4ccc(O)cc4s3)sc2c1"
  EM [nm]: 549
- Input smiles: "O=C(O)Cc1ccc2nc(-c3nc4ccc(O)c(Cl)c4s3)sc2c1"
  EM [nm]: 545
- Input smiles: "O=C(Cc1ccc2nc(-c3nc4ccc(O)cc4s3)sc2c1)NCCS(=O)(=O)O"
  EM [nm]: 548

Origin of measurements: patent US6140051A
